Where these numbers come from: PubChem BioAssay AID1645871

settings: pampa; pH 5.0; 30.0 min; 50.0 µM
Binary call on Papp: yes (1) from 90 ×10⁻⁶ cm/s upward, no (0) beneath that.

These recorded examples may help you get a feel for the data.
COc1ccc2c(c1)N(C[C@H](C)CN(C)C)c1ccccc1S2 ... yes (1)
Cc1cnc(-c2ccccc2C(C)C)nc1NCc1ccc(-n2ccnn2)cc1 ... yes (1)

Task: Reported Papp reaches at least 90 ×10⁻⁶ cm/s for `Cc1nn2c(c1-c1ccccc1-c1ccccc1)N(Cc1ccc(C(=O)O)s1)CCC2` ?
Result: yes (1)

Task: Hi, just wondering whether `CCOc1ccc(CCNC(=O)c2cc3ccccc3n2C)cc1OCC` shows Papp of 90 ×10⁻⁶ cm/s or higher.
Result: yes (1)

Task: Please tell me: is the molecule `COc1cccc(C(=O)Nc2ccc3oc(-c4ccc5ccccc5c4)nc3c2)c1` at or over 90 ×10⁻⁶ cm/s in terms of Papp?
Result: yes (1)

Task: Check if Papp >= 90 ×10⁻⁶ cm/s (inclusive). Item: COc1ccc(C2c3c(oc4ccc(C)cc4c3=O)C(=O)N2CCCN2CCOCC2)cc1OC (stereo unspecified)
Result: no (0)

Task: API: above_or_equal(metric=Papp, cutoff=90 ×10⁻⁶ cm/s) for item `COc1cc2ncnc(Oc3cccc(NC(=O)Nc4cc(C(C)(C)C(F)(F)F)on4)c3)c2cc1OC`
Result: yes (1)

Task: Identify whether the reported Papp of the following molecule is 90 ×10⁻⁶ cm/s or greater: `COc1cccc(Cn2c(=O)n(-c3cccc(Cl)c3C)c(=O)c3c4c(sc32)CN(C(C)=O)CC4)c1`
Result: yes (1)

Task: Kindly determine if Papp recorded for COc1cccc2c1CCCC2CCCN1CCN(C2CCCCC2)CC1 (stereo unspecified) is above or exactly 90 ×10⁻⁶ cm/s.
Result: yes (1)

Task: API: above_or_equal(metric=Papp, cutoff=90 ×10⁻⁶ cm/s) for item `CC(C)c1ccccc1-c1nc(NCc2ccc(-c3cccnc3)cc2)c2ccccc2n1`
Result: yes (1)

Task: // inclusive: Papp at least 90 ×10⁻⁶ cm/s? input: Cc1cc(Br)ccc1NC(=O)C(NS(=O)(=O)c1cccs1)c1ccccc1 (stereo unspecified)
Result: no (0)

Task: Confirm if Papp reported for the molecule `COc1ccc(-n2nc(C3CCN(C(=O)Cc4ccc(F)cc4)CC3)[nH]c2=O)cc1` is 90 ×10⁻⁶ cm/s or above.
Result: yes (1)

Task: Can `CCC1=Nc2cc(C(=O)NCCCOC)ccc2Sc2ccc(Br)cc21` be said to have Papp at or above 90 ×10⁻⁶ cm/s?
Result: yes (1)

Task: Is it the case that `C[C@H]1CN(C(=O)Nc2ccc(F)cc2F)C[C@@H]1c1nc(-c2ccccc2)no1` has Papp reaching or exceeding 90 ×10⁻⁶ cm/s?
Result: yes (1)

Task: Would you say `Cc1nn2c(c1-c1ccccc1-c1ccccc1)N(CCC(C)C)CCC2` shows Papp at minimum 90 ×10⁻⁶ cm/s?
Result: yes (1)

Task: Could you please find out whether `C[C@@H](O)CNC(C)(C)CC(=O)N[C@@H]1CCc2ccccc2N(Cc2ccc(-c3ccccc3-c3nn[nH]n3)cc2)C1=O` has Papp that meets 90 ×10⁻⁶ cm/s or exceeds it?
Result: no (0)

Task: Evaluate `CCCCCn1c(CCCNC(=O)c2ccccc2OC)nc2ccccc21` : Papp at minimum 90 ×10⁻⁶ cm/s?
Result: yes (1)

Task: Given `COc1ccc(-c2ccc3ncc(Nc4ccncc4)n3n2)cc1OC` , state whether its Papp is at least 90 ×10⁻⁶ cm/s.
Result: no (0)

Task: Reported Papp reaches at least 90 ×10⁻⁶ cm/s for `Cc1ccc(-c2nc(C)c(C(=O)Nc3ccc4c(c3)C(=O)N3CCC[C@H]3C(=O)N4)s2)cc1` ?
Result: no (0)

Task: Papp >= 90 ×10⁻⁶ cm/s for `Cc1n[nH]c(C)c1CCc1nc2c3ccccc3nc(SCC(=O)Nc3ccc(F)cc3)n2n1` ?
Result: yes (1)

Task: Determine whether measured Papp meets or exceeds 90 ×10⁻⁶ cm/s for COc1ccc(-n2nc(C3CCCN(C(=O)c4ccccc4F)C3)[nH]c2=O)cc1 (stereo unspecified)
Result: yes (1)

Task: # bool: Papp of `CSc1nn(Cc2cccc(C)c2)c(N)c1S(=O)(=O)c1ccccc1` >= 90 ×10⁻⁶ cm/s
Result: yes (1)

Task: Quick check, Papp >= 90 ×10⁻⁶ cm/s? `CNc1oc(-c2cccc3ccccc23)nc1C#N`
Result: yes (1)

Task: Check the entry `Cc1nn2c(c1-c1ccccc1-c1ccccc1)N(Cc1ccc(O)cc1)CCC2` : does Papp equal or exceed 90 ×10⁻⁶ cm/s?
Result: yes (1)

Task: Evaluate `CC/C=C\C/C=C\C/C=C\C/C=C\C/C=C\C/C=C\CCC(=O)NCCO` : Papp at minimum 90 ×10⁻⁶ cm/s?
Result: no (0)

Task: Confirm if Papp reported for the molecule `O=C(Nc1ccc(OC(F)(F)Cl)cc1)c1cnc(N2CC[C@@H](O)C2)c(-c2ccn[nH]2)c1` is 90 ×10⁻⁶ cm/s or above.
Result: no (0)

Task: For this molecule, is measured Papp 90 ×10⁻⁶ cm/s or higher? O=C(COc1ccccc1)NCC(c1cccs1)S(=O)(=O)c1ccc(Cl)cc1 (stereo unspecified)
Result: yes (1)

Task: Hello, I need to know if `NC(=O)c1ccc(-c2ncc3cnc(-c4cccc(F)c4)cn23)cc1` has measured Papp not below 90 ×10⁻⁶ cm/s. Thanks!
Result: yes (1)

Task: Is the recorded value of Papp equal to or greater than 90 ×10⁻⁶ cm/s for this molecule? `CCC(CC)c1cc([C@H]2CN3CC[C@H]2C[C@@H]3CNC(=O)COc2ccccc2)nc(-c2ccncc2)n1`
Result: yes (1)

Task: Is reported Papp greater than or equal to 90 ×10⁻⁶ cm/s here: O=C(NCC1CCOCC1)C1CC(=O)N(c2n[nH]c3cc(Br)ccc23)C1 (stereo unspecified)
Result: no (0)

Task: Check if Papp >= 90 ×10⁻⁶ cm/s (inclusive). Item: `COc1ccc(OC)c(Nc2c3c(nc4ccccc24)CCC3)c1`
Result: yes (1)

Task: Is the recorded value of Papp equal to or greater than 90 ×10⁻⁶ cm/s for this molecule? Fc1ccc(N2CCCN(CC3[C@H]4CNC[C@@H]34)CC2)cc1 (stereo partly specified)
Result: no (0)

Task: Would you say `CC(=O)Nc1ccc(CN2CCc3nc(C(C)C)nc(-c4ccc(Cl)cc4)c3CC2)cc1` shows Papp at minimum 90 ×10⁻⁶ cm/s?
Result: yes (1)
